Each recorded value in this set is attributed to PubChem BioAssay (NCI).

Test system: NCI-H460 lung
TEST: NCI-60 one-dose screen, 48 h (100 = growth as untreated, 0 = no growth, -100 = all killed)
DETAILS: 10 µM
About 83,000 compounds went through this panel and 20% of them were active in at least one assay; those are over-represented in the sample as a whole.
READOUT NAME: growth (%)
The answer is to be given in %; state only the numeric part.

Past entries and their recorded results:
Cc1cccc(NC2=C(C#N)C(=O)NC3(CCCC3)S2)c1 : 107
COC(=O)c1ccc(=O)oc1 : 110
O=C(Nc1cccc(Cl)c1)Nc1nccs1 : 98.9
CCCCN(CCCC)CCCCCCCCC(O)c1cc2ccccc2c2ccccc12 (stereo unspecified) : 54.2
O=C1ON=[N+](c2ccc(Cc3ccc([N+]4=NOC(=O)C4CN4CCOCC4)cc3)cc2)C1CN1CCOCC1 (stereo unspecified) : 82.9

Problem: Param readout = growth; param system = NCI-H460 lung; param query = "COc1ccc(-c2nc3ccccn3c2-c2nnc(-c3cc(OC)c(OC)c(OC)c3)o2)cc1" ; response: value
Result: 21.6

Problem: Same question, "CC(=O)N1C/C(=C/c2ccc(Cl)cc2)C(=O)/C(=C/c2ccc(Cl)cc2)C1" this time
Result: -14.1

###

System: PC-3 prostate
TEST: NCI-60 one-dose screen, 48 h (100 = growth as untreated, 0 = no growth, -100 = all killed)
DETAILS: 10 µM
This is part of a sample that, as a whole, favours compounds with a hit. Of some 83,000 tested, about 20% had one in any assay.
Note to self: values exactly at 90% are yes (1). So growth at or above 90% is yes (1), below is no (0).

C=C(NC(=O)C(=C)NC(=O)c1csc(C2=NC3c4csc(n4)C4NC(=O)c5csc(n5)C(C(C)(O)C(C)O)NC(=O)C5CSC(=N5)/C(=C/C)NC(=O)C(C(C)O)NC(=O)c5csc(n5)C3(CC2)NC(=O)C(C)NC(=O)C(=C)NC(=O)C(=C)NC(=O)C(C(C)C)NC2C=Cc3c(C(C)O)cc(nc3C2O)C(=O)OC4C)n1)C(N)=O (centres undefined) : no (0)
Nc1c(C(=O)Nc2ccccc2Cl)sc2nc3c(cc12)C(=O)CCC3 : no (0)
COc1ccc2c(c1)C(=O)c1c-2c(OCCN(C)C)nc2cc(OC)c(OC)cc12 : no (0)
CC12O[C@H](C[C@@H](OC(=O)c3ccccc3)[C@H]1O)n1c3ccccc3c3c4c(c5c6ccccc6n2c5c31)C(=O)NC4=O : no (0)
COc1ccc(C(=O)/C=C/c2cc(-c3cc(OC)c(OC)c(OC)c3)n[nH]2)cc1 : no (0)

Could you now consider this next compound?
Problem: Has "Clc1ccc2c(NCCCNc3nccc(Nc4ccc(Br)cc4)n3)ccnc2c1" a recorded growth greater than or equal to 90%?
Result: no (0)

###

Tested on: HT29 colon
TEST: NCI-60 one-dose screen, 48 h
DETAILS: 10 µM
About 83,000 compounds went through this panel and 20% of them were active in at least one assay; those are over-represented in the sample as a whole. Calls of active or inactive are those of the source. How the source made its calls: active means growth percent below 10; inactive means the rest.
// one of yes (1) (active), no (0) (inactive), no free text

A selection of reference data follows.
CC(C)(C)c1cc(Br)cc(C(C)(C)C)c1O : no (0)
COc1ccc(Cn2c(C(N)=O)cc3c2-c2nc(N)ncc2CCC3)cc1 : no (0)
CC(=O)C1CCC2C3CC(F)C4=CC(=O)CCC4(C)C3C(O)CC12C (stereo unspecified) : no (0)
C#Cc1ccc(-n2c(/C=C/c3ccc(O)c(OC)c3)nc3ncccc3c2=O)cc1 : no (0)
Nc1ncnc2[nH]c(=O)[nH]c12 : no (0)
CNc1ccc(CSc2ccc(C)cc2)cc1 : no (0)

Problem: Please share the test call associated with "CCN(CC)CCSCCN(CC)CC" .
Result: no (0)

Problem: Same question, "CN(C)Cc1cn(-c2ncc(-c3ccc(C(F)(F)F)cc3)c(NC3CCCCCC3)n2)nn1" this time
Result: no (0)

Problem: Same question, "O=C1Nc2ccccc2C1=NC1CCCCC1" this time
Result: no (0)

Problem: Same question, "CCOC(=O)N1C/C(=C/c2ccc(F)cc2)C(=O)/C(=C/c2ccc(F)cc2)C1" this time
Result: yes (1)

Problem: Same question, CCOCCOCCOCCOCCOCCOCCOCCOCCOCCO (tested in a mixture with another compound) this time
Result: yes (1)

Problem: Same question, "CC/C(=C(/c1ccc(OCCN(C)C)cc1)c1ccc(OC(=O)CCCCC(=O)c2c(C)[nH]c(/C=C3\N=C(c4ccc[nH]4)C=C3OC)c2C)cc1)c1ccccc1" this time
Result: no (0)

Problem: Same question, "COc1cc(NC(=O)CCSc2nc3ccc(Cl)cc3c(=O)n2Cc2ccccc2)cc(OC)c1OC" this time
Result: no (0)

Problem: Same question, "COc1cc(/C=C2\Oc3cc(OCC(=O)c4ccccc4)ccc3C2=O)cc(OC)c1OC" this time
Result: no (0)

Problem: Same question, "NC(=S)N=Nc1c(O)c2ccccc2c2ccccc12" this time
Result: no (0)

Problem: Same question, CCOC(=O)N1C=CC2C=CC1C1C=CC=CC2N1C(=O)OCC (stereo unspecified) this time
Result: no (0)

Problem: Same question, "COC(=O)C1=NNC(=S)N(c2cc(C)[nH]n2)C(=O)C1" this time
Result: no (0)

Problem: Same question, CC[C@H](C)C(=O)O[C@H]1CCC=C2C=C[C@H](C)C(CCC3C[C@@H](O)CC(=O)O3)[C@H]21 (stereo partly specified) this time
Result: no (0)

Problem: Same question, CCN(CC)CCCC(C)Nc1ccc2ccc(Cl)cc2n1 (stereo unspecified) this time
Result: no (0)

Problem: Same question, "N#Cc1ncc(-c2ccc(C(F)(F)F)cc2)c(NCc2cc(C(F)(F)F)cc(C(F)(F)F)c2)n1" this time
Result: yes (1)

Problem: Same question, "CCN(CC)CCNc1ccc(CO)c2oc3cc(Cl)ccc3c(=O)c12" this time
Result: no (0)
